# target.of.assay: T1, His-tagged human LILRB2 polypeptide (human, UniProt Q8N423 22-460)
# T1 construct: SPR analyte; also called His-tagged human LILBR2 polypeptide; not shown: His tag
# protocol: SPR, antibody on CM5 chip, His-LILRB2 analyte, 1:1 model
Reported Kd values follow for various binders
Record the value in nM, omitting the unit from your answer.

binder	Kd / nM
Antibody 15A6 (antibody, V domains shown, Mouse hybridoma mAb purified from ascites) VH: EVKLVESGGDLVKPGGSLKLSCAASGFTFSTYGMSWVRQTPEKRLEWVATISGSNSYTYYPDSVKGRFTISRDNAKNNLYLQMSSLRSEDTALYYCTRHENGYYFYAMDYWGQGTSVTVSS VL: DVQITQSPSYLTASPGETITINCRSSKSITKYLAWYQEKPGKTNKLLIYSGSTLQSGIPSRFSGSGSGTDFTLTISSLEPEDFAMYYCQQHSEYPWTFGGGTRLEIK	5.45
Antibody 8A4 (antibody, V domains shown, Mouse hybridoma mAb purified from ascites) VH: QVQLKESGPGLVAPSQSLSITCTVSGFSLTDYGVNWVRQPPGKGLEWLGMIWGDGNTDYNSALKSRLSISKVNSKSQVFLKMNSLQTDDTARYYCARSSYRYDENIYYYAMDYWGQGTSVTVSS VL: DIVMTQSPSSLTVTAGEEVTLSCKSSQSLLNSGIQKNYLTWYQQKPGQPPKLLIYWASTRESGVPDRFTGSVSGTDFTLTISSVQAEDLAVYYCQNDYSLPFTFGSGTKLEIK	0.185
Antibody 11B12 (antibody, V domains shown, Mouse hybridoma mAb purified from ascites) VH: DVQLQESGPGLVKPSQSLSLTCSVTGYSITSGYYWNWIRQFPGNKLEWMGYISYDGNNNYNPSLKNRISITRDTSKNQFFLKLNSVTTEDTATYYCAREESTMITTAWFAYWGQGTLVTVSA VL: DIQMTQSPASLSVSVGETVTITCRASENIYSNLAWYQQKQGKSPQLLVYGATNLADGVPSRFSGSGSGTQYSLKINSLQSEDFGSYFCQHFWDTPYTFGGGTKLEIK	0.353
Antibody 9B6 (antibody, V domains shown, Mouse hybridoma mAb purified from ascites) VH: DVQLVESGGGLVQPGWSRILSCAASGFTFSNFGMHWVRQAPEKGLEWVAYISSGSGTIYYSDTVRGRFTISRDNPKNTLFLLMTSLRSEDTAMYYCTRSDYDGDWFFDVWGAGTTVTVSS VL: DIVMTQSHRFLSTSVGDRVTITCKASQDVTTAVAWCQQKPGQSPKLLIYSASFRYTGVPDRFTGSGSGTDFTFTINNVQAEDLALYYCQQHFTTPLTFGAGTKLELK	1.07

Now take the following binder into account.
Ask | Endpoint output: Kd of Antibody 7C12 (antibody, V domains shown, Mouse hybridoma mAb purified from ascites) VH: EVQLQQSGPDLVKPGASVKISCKASGYIFTDFNMHWVKQSHGKSLEWIGYIYPFNGGTGYNQKFENMATLTVDISSSTAYMEVRSLTSEDSAVYYCARRGGRGHFDYWGQGTTLTVSS VL: DIQMTQSPASLSASVGETVTVTCRASGNIHNYLAWYQQKQGKSPQLLVYNAKTLADGVPSRFSGSGSGIQFSLKINSLQPEDFGSYYCQHFWNTPFTFGSGTKLEIK . Value?
Reply | 0.792
